- protocolDescription: The drug is tested on Parabacteroides merdae strain: ATCC43184 for biotransformation. The drug concentrations were measured before and after a 12-h incubation by liquid-chromatography-coupled mass spectrometry (LC–MS)
- experimentalParameters: 2 µM
observable: Bacterial Biotransformation

CCN(CC)CC#CCOC(=O)C(O)(c1ccccc1)C1CCCCC1.Cl (centres undefined) [OXYBUTYNIN CHLORIDE] = Compound NOT metabolized
CC(=O)CCCCn1c(=O)c2c(ncn2C)n(C)c1=O = Compound NOT metabolized
OC(Cn1cncn1)(Cn1cncn1)c1ccc(F)cc1F = Compound NOT metabolized
CC(CN(C)C)CN1c2ccccc2CCc2ccccc21.O=C(O)/C=C\C(=O)O (centres undefined) [TRIMIPRAMINE MALEATE] = Compound NOT metabolized
